subject-of-test: GABA-A receptor; anion channel
test-name: Inhibition of [3H]flunitrazepam binding to rat brain synaptosomes
assay-readout: IC50 (nM)
One number for each entry, in nM.

**Query** // IC50 lookup, key: COc1cc(O)c2c(c1)oc(=O)c1c3cc(O)c(O)cc3oc21 [WEDELOLACTONE]
**Result** 2000

Cited source for all entries: ChEMBL document CHEMBL1134741
